Biological target: testosterone 5α-reductase prepared from rat prostates
Test: Testosterone 5α-reductase assay ([1,2,6,7-3H]testosterone as substrate);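 also: conversion of tritiated testosterone to 5α-dihydrotestosterone, separated by TLC and scintillation counted, relative to enzyme control without test sample after subtracting substrate blank without enzyme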
Conditions: read-out: IC50 (5α-reductase inhibitory activity); rat prostatic testosterone 5α-reductase
pIC50: −log10 of the molar value.
Think of 8 as a floor: if pIC50 stands on it or above, it is MET; beneath it, NOT MET.

Please check the record CC(=NO)[C@H]1CC[C@H]2[C@@H]3CC=C4NC(=O)CC[C@]4(C)[C@H]3CC[C@]12C and state if its pIC50 is at or above 8.
NOT MET

Please check the record CC(C)(C)NC(=O)[C@H]1CC[C@H]2[C@@H]3CC[C@H]4NC(=O)C=C[C@]4(C)[C@H]3CC[C@]12C [Finasteride, finasteride, reference compound] and state if its pIC50 is at or above 8.
MET
